Target: recombinant human STIM1 and Orai1 (HEK-293 stable cells; JR251) (Homo sapiens, UniProt Q96D31)
Construct: c-myc (C); expressed in transfected cells
Sequence (Q96D31 whole entry): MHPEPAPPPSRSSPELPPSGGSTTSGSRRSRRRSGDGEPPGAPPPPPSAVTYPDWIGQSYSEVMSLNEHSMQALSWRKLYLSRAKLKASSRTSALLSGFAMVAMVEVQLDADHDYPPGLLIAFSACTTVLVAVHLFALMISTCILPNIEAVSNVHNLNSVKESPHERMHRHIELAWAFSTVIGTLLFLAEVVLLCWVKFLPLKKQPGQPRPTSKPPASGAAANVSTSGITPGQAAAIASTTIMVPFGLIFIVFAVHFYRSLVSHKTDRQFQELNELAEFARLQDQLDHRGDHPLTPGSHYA
Experiment: Fluorescence-based assay of store-operated calcium entry in Orai1/STIM1 stable cells
Assay type: cell-based
Conditions: 50% inhibition of Peak-Basal signal
Protocol: A. Fluorescence-Based Assay of Store-Operated Calcium Entry in Orai1/STIM1 Stable Cells. […] The day prior to performing the assay Orai1/STIM1 stable cells were plated in 50 μL of complete medium at 90-95% confluence in a 384 well plate. […] The initial baseline fluorescence signal was then measured with a FLIPR^384 (Molecular Devices) plate reader. Calcium entry was initiated by adding 5 μl of 10×CaCl2 (10 mM) in HBSS, and changes in cellular fluorescence were measured with the FLIPR^384 plate reader. […]

compound: COc1c(F)c(F)cc(C(=O)Nc2scc(-c3ccc(Br)cc3)c2C(=O)O)c1F [L]
IC50: ≤ 0.5 µM
//
compound: COc1cc(C)c(-c2csc(NC(=O)c3cc4ccccc4o3)c2C(=O)O)c(C)c1 [N]
IC50: ≤ 0.5 µM
//
compound: O=C(Nc1scc(-c2ccc(Br)cc2)c1C(=O)O)c1ccc(C(F)(F)F)nc1 [AA]
IC50: 1 to 10 µM
//
compound: Cc1nnsc1C(=O)Nc1scc(-c2ccc(Br)cc2)c1C(=O)O [A]
IC50: 1 to 10 µM
//
compound: O=C(Nc1scc(-c2ccc(Cl)cc2)c1C(=O)O)c1ccc(C(F)(F)F)nc1 [M]
IC50: 1 to 10 µM
//
compound: O=C(Nc1scc(-c2ccc(Br)cc2)c1C(=O)O)c1nc2cccc(F)c2o1 [B]
IC50: ≤ 0.5 µM
//
compound: Cc1ccc(-c2csc(NC(=O)c3cnc4ccccc4n3)c2C(=O)O)c(F)c1F [F]
IC50: ≤ 0.5 µM
//
compound: O=C(Nc1scc(-c2ccc(Br)cc2)c1C(=O)O)c1nc2c(F)cccc2o1 [C]
IC50: ≤ 0.5 µM
//
compound: O=C(Nc1scc(-c2cc3cccc(O)c3o2)c1C(=O)O)c1cc2cccc(O)c2o1 [AB]
IC50: 1 to 10 µM

Entry source: patent US8394848B2
